Reported inhibition at 25 µM by item:
Test system: RAW264.7
assay comment: Inhibition of LPS/IFN-gamma-induced PGE2 production in mouse RAW264.7 cells at 25 uM after 17 to 20 hrs by enzyme immunoassay relative to control
Assay type: functional
Please give a number only; it is taken to be in %.

Some entries whose results are on file:
- COc1cccc(/C=C2\CCC/C(=C\c3ccc(-c4ccc(F)cc4)cc3)C2=O)c1OC: 51
- COc1cc(/C=C2\CCC/C(=C\c3ccc(O)cc3)C2=O)ccc1O: 96

inhibition at 25 µM of COc1cccc(/C=C2\CCC/C(=C\c3ccc(C)cc3)C2=O)c1OC , assay on RAW264.7, is 83

So the reported inhibition at 25 µM for Cc1ccc(/C=C2\CCC/C(=C\c3cccc4ccccc34)C2=O)cc1 , on RAW264.7, turned out to be 74

Field inhibition at 25 µM (system: RAW264.7) for entry CCN(CC)c1ccc(/C=C2\CCC/C(=C\c3ccc(-c4ccc(F)cc4)cc3)C2=O)cc1 = 65

---

assay comment: Cytotoxicity against mouse RAW264.7 cells assessed as cell viability at 25 uM by MTT assay relative to control
Type: cell-based
condition set: read-out: Activity
assay readout: viability at 25 µM (%)
Respond with the bare value in %.

Please review the following examples before continuing.
* CCN(CC)c1ccc(/C=C2\CCC/C(=C\c3ccc(-c4ccc(F)cc4)cc3)C2=O)cc1 | 94
* COc1cccc(/C=C2\CCC/C(=C\c3ccc(-c4ccc(F)cc4)cc3)C2=O)c1OC | 90

Lab note: Cc1ccc(/C=C2\CCC/C(=C\c3cccc4ccccc34)C2=O)cc1 gave viability at 25 µM of 100

---

Test system: RAW264.7
assay comment: Inhibition of LPS/IFN-gamma-induced PGE2 production in mouse RAW264.7 cells at 25 uM after 17 to 20 hrs by enzyme immunoassay relative to control
Assay type: functional
assay readout: inhibition at 25 µM (%)
Write it as a number; the unit % goes unstated.

Kindly note the recorded inhibition at 25 µM for Cc1ccc(/C=C2\CCC/C(=C\c3ccc(Cl)c(Cl)c3)C2=O)cc1 , which is 64

Lab note: measured inhibition at 25 µM of COc1ccc(/C=C2\CCC/C(=C\c3ccc(O)c(OC)c3)C2=O)cc1 was 96

# inhibition at 25 µM (compound: COc1cc(/C=C/C(=O)CC(=O)/C=C/c2ccc(O)c(OC)c2)ccc1O [CURCUMIN] ) is 78

---

assay comment: Cytotoxicity against PMA-treated human U937 cells assessed as cell viability at 25 uM by MTT assay relative to control
Assay type: cell-based, U-937
condition set: read-out: Activity
assay readout: viability at 25 µM (%)
Write down the numeric answer in % and omit the unit.

Sample answers from the record:
- COc1cc(/C=C2\CCC/C(=C\c3ccc(O)cc3)C2=O)ccc1O: 100
- O=C1/C(=C/c2ccc(Br)cc2)CCC/C1=C\c1ccc(-c2ccc(F)cc2)cc1: 98
- CCN(CC)c1ccc(/C=C2\CCC/C(=C\c3ccc(-c4ccc(F)cc4)cc3)C2=O)cc1: 100
- Cc1ccc(/C=C2\CCC/C(=C\c3ccc(C)o3)C2=O)cc1: 98

The compound identified as COc1cccc(/C=C2\CCC/C(=C\c3ccc(-c4ccc(F)cc4)cc3)C2=O)c1OC registered its viability at 25 µM at 98

viability at 25 µM recorded for this compound, COc1cc(/C=C2\CCC/C(=C\c3ccc(Br)cc3)C2=O)ccc1O , is 100

---

Test system: RAW264.7
assay comment: Inhibition of LPS/IFN-gamma-induced nitric oxide production in mouse RAW264.7 cells at 25 uM relative to control
Assay type: functional
assay readout: inhibition at 25 µM (%)
Give your result in % as a bare value.

Solved entries (count: 3):
* CCN(CC)c1ccc(/C=C2\CCC/C(=C\c3ccc(O)c(OC)c3)C2=O)cc1 | 100
* COc1cccc(/C=C2\CCC/C(=C\c3ccc(C)cc3)C2=O)c1OC | 95
* COc1cc(/C=C2\CCC/C(=C\c3ccc(O)cc3)C2=O)ccc1O | 100

Item: COC(=O)[C@@H](N)CCCNC(=N)N[N+](=O)[O-] [L-NAME] | inhibition at 25 µM: 53

The recorded inhibition at 25 µM for COc1cc(/C=C/C(=O)CC(=O)/C=C/c2ccc(O)c(OC)c2)ccc1O [CURCUMIN] is 85

// COc1cccc(/C=C2\CCC/C(=C\c3ccc(Cl)c(Cl)c3)C2=O)c1OC : inhibition at 25 µM value = 90
